Attribution: PubChem BioAssay (NCI)

- System: NCI-H522 lung
- Test Name: NCI tumour cell line growth inhibition, 48 h
Each item that follows carries a reported log10 of TGI.
Annotation: log10 of TGI, µM basis.

# count of solved cases: 5
CS(=O)(=O)Nc1ccc(Nc2cc[nH]c3ccc4nccc4c23)cc1 = 1.39
CN1CCN(Cc2ccc(NC(=O)c3cnc(F)c(C#Cc4cnc(N)c5ncccc45)c3)cc2C(F)(F)F)CC1 = 1.00
CCN(CC)c1ccc2cc(C(=O)Nc3ccccc3OC)c(=N)oc2c1 = 1.82
O=C(C(Br)C(Br)c1ccccc1)C(Br)C(Br)c1ccccc1 (stereo unspecified) = -0.21
O=C(COc1ccc(OCC(=O)N2C(=O)CN(c3ccc(Cl)cc3)C2=S)cc1)N1C(=O)CN(c2ccc(Cl)cc2)C1=S = 1.84

# input compound: `CN1CCN(Cc2ccc(NC(=O)c3nc4ccc5[nH]ncc5c4c4c3CCCC4)cc2C(F)(F)F)CC1` ; wanted: its log10 of TGI
0.27

Field request: log10 of TGI | item: `Cc1nc(C(N)=S)sc1C(=O)CC(=O)C(=O)Nc1c(C(C)C)cccc1C(C)C`
1.67

Data request, read-out log10 of TGI, for C[C@]12CCc3nonc3C1CC[C@@H]1C2CC[C@]2(C)C(=O)/C(=N\O)CC12 (stereo partly specified)
1.51

Data request, read-out log10 of TGI, for `O=C1c2[nH]cc(CN3CCN(CCO)CC3)c2C(=O)c2c1c(O)c1ccccc1c2O`
0.96

What value of measured log10 of TGI is listed for `COc1ccc(/C=N/Nc2nc(N)nc(N3CCCC3)c2C#N)cc1` ?
1.68

Can you look up the measured log10 of TGI of `Clc1cccc(Cl)c1C(Nc1nncs1)Nc1nncs1` for me?
1.85

Name the reported log10 of TGI value associated with the compound CC(SC(=S)Nc1cccc(F)c1)C(=O)O (stereo unspecified)
1.54
